FYI, the data here is from ChEMBL document CHEMBL1124419.

# Test system: Rattus norvegicus
# measurementProtocol: Concentration accumulated in blood at 24 hr r after intravenous administration in rat
# Type: ADME, organism-based
# particulars: in vivo
quantityName: Dose/g (%)

INSERT INTO assay_data (compound, systemtested, quantityname, recordedresult) VALUES
  ('CC(C)CCCC(C)C1CCC2C3CC(CI)C4=C(CCC(O)C4)C3CCC12C (stereo not given)', 'Rattus norvegicus', 'Dose/g', 0.87);

1. C[C@H](OC(=O)c1ccccc1I)C1CCC2C3CC=C4CC(O)CCC4(C)C3CCC21C (stereo not given in full)
2. C[C@@H](OC(=O)c1ccccc1I)C1CCC2C3CC=C4CC(O)CCC4(C)C3CCC21C (stereo not given in full)
Problem: Could you determine which record has the numerically smaller Dose/g? Candidates: 1 and 2 Bench note: the answer is the label of the chosen record.
Solution: 2
(2: 0.02%, 1: 0.05%)

###

# System: Rattus norvegicus
# measurementProtocol: Concentration accumulated in blood at 0.5 hr after intravenous administration in rat
# Assay type: ADME, organism-based
# particulars: in vivo
quantityName: Dose/g (%)

INSERT INTO assay_data (compound, quantityname, recordedresult) VALUES
  ('CC(C)CCCC(C)C1CCC2C3CC(CI)C4=C(CCC(O)C4)C3CCC12C (stereo not drawn)', 'Dose/g', 2.35);

P. C[C@H](OC(=O)c1ccccc1I)C1CCC2C3CC=C4CC(O)CCC4(C)C3CCC21C (stereo partly drawn)
Q. C[C@@H](NC(=O)c1ccccc1I)C1CCC2C3CC=C4CC(O)CCC4(C)C3CCC21C (stereo partly drawn)
Problem: Please indicate which item has the smaller measured Dose/g: P versus Q Reply briefly: the label of your chosen item.
Solution: Q
(Q: 0.08%, P: 0.59%)
